For each record, write down the corresponding folding stability dG unfold.
# assay name: folding stability dG unfold from chymotrypsin proteolysis; higher = more stable
Answers are plain numbers, in kcal/mol.

[[record]]
sequence_text = "SAGGSASVTRMIQIPPGDPNMSIEEAIEKIKIYLPNGKPVTIEIDRIWPDPNRYFFMITIKDGKPVSAGGSA [r15_331_TrROS]"
readout_value = 2.28


Could you report folding stability dG unfold for every entry in the following list?
1. SAGGSAGGSAGGRKLAIKIEIEEVKTETRIRPDGKTETRTELRIKIEIRPVPHPDDPELLSAGGSAGGSAGG [r7_523_TrROS_Hall]
2. SAGGSAGGSAGGSMVIKFTHPDGDPNLPVETLNLKKEELSEEKIKELKEKNPDIKIELKSAGGSAGGSAGGS [r4_422_JUSTAS]
3. SAGGMIKIEVEKKDDKLIIRIEVDGKKYEIEIPKDMTLEEALKKALEELKEKFPGKKIKIKKVEIFKPSAGG [r13_884_TrROS_Hall]
4. SAGGSAGGSKKWIPIDSPSEIEDLLEKAPPGGKLKIYNNNGQTEKVPPNEIERTPNHWWIEVDSAGGSAGGS [r12_907_TrROS]

1. 1.95
2. 0.257
3. 2.21
4. 0.314

Could you report folding stability dG unfold for every entry in the following list?
1. SAGGSAGGSNWYQFTIPFPIPPDEPVEIKLPDGWEIHEIPPNSGRITIYMPMNNMDAIKEAIGSAGGSAGGS [r12_476_TrROS]
2. SAGVISPTDPTTTTTTEVRESEDGTTTTVSTVTYPGTGSTMTVTTTTTHDPSTGTSTVTSTTTTDPSASAGG [r19_342_JUSTAS]
3. SAGGSFIKITTKLPNRKIEIPIPDAEIEVEGNTVTITFPPGNAEEVKKAVLEASDEVEITEVKIIDESAGGS [r8_490_JUSTAS]
4. SMVTSETRETVTVTLPDGTVVTVTVTTHRPADGVPTATVTVTTTSADGTPTTSTHTFPAAEAPALIAAALSA [r9_189_JUSTAS]

1: 1.01; 2: 0.394; 3: 0.871; 4: 1.96
